# test: Toxicity in BALB/c mouse at 30 to 300 mg/kg, ip administered as single dose measured after 15 days
# Assay type: organism-based
# Set-up: dose 30-300 mg/kg, route intraperitoneal
# measurement setup: in vivo

{"structure string": "CC[C@@]1(OC(=O)CN/C(Cc2ccc(OC)cc2)=N/S(=O)(=O)c2ccc(C)cc2)C(=O)OCc2c1cc1n(c2=O)Cc2cc3ccccc3nc2-1", "MTD at 360 h": "300 mg/kg"}

====

Recorded LD50 for the following molecules
# test: Toxicity in ip dosed mouse
# Assay type: organism-based
# measurement setup: in vivo
quantity: LD50 (mg/kg)

{"structure string": "CC[C@@]1(O)C(=O)OCc2c1cc1n(c2=O)Cc2cc3ccccc3nc2-1", "unit spec": "mg/kg", "measured result": 56.2}
{"structure string": "CCc1c2c(nc3ccc(OC(=O)N4CCC(N5CCCCC5)CC4)cc13)-c1cc3c(c(=O)n1C2)COC(=O)[C@]3(O)CC", "unit spec": "mg/kg", "measured result": 178}
